# Test Description: in vitro
# Format: in vitro ADME, human
# Settings: human, microsomes, pH 7.4, human Clint
Property: log10(CLint scaled at 0.5 µM) (log10 of the value in L/h/kg)
All values: log10 CLint scaled at 0.5 µM [L/h/kg].

Record excerpt, results attached:
>  <Given Smiles>
O=C(NCCc1ccc2c(c1)OCO2)C1(c2ccccc2)CCC1

>  <Property>
log10(CLint scaled at 0.5 µM)

>  <Result Number>
1.72

$$$$
>  <Given Smiles>
COc1ccc(CCNC(=O)C2(c3ccccc3Cl)CCC2)cc1-c1ccccc1

>  <Property>
log10(CLint scaled at 0.5 µM)

>  <Result Number>
3.23

$$$$

Record O=C(NCCc1cccc(Br)c1)C1(c2ccccc2C(F)(F)F)CCC1 . Reported log10(CLint scaled at 0.5 µM): 2.99

For record O=C(NCCc1cc(Br)ccn1)C1(c2ccccc2)CCC1 the listed log10(CLint scaled at 0.5 µM) is 1.84

Recorded log10(CLint scaled at 0.5 µM) (compound O=C(NCCc1cccc(Br)c1)C1(c2cccc(Cl)c2)CCC1 ): 2.74

// log10(CLint scaled at 0.5 µM) value for O=C(N[C@H]1CCc2ccc(Br)cc2C1)C1(c2ccccc2)CCC1 : 2.44

Looking up O=C(NCCc1cccc(C(F)(F)F)c1)C1(c2ccc(F)cc2)CCC1 , I see its log10(CLint scaled at 0.5 µM) listed as 2.08

----------
# Test Description: in vitro
# Settings: PAMPA
Property: Papp
# output: numeric value plus its unit

The recorded Papp for entry O=C(NCCc1cc(Br)c(O)c(Br)c1)C1(c2ccccc2)CCC1 equals 87 ×10⁻⁶ cm/s

----------
# Test Description: in vitro
# Assay type: cell-based
# Settings: human; concentration for 20% inhibition of HepG2 cells, 72 h, n = 2
Property: IC20 (µM)
Give the number; µM is assumed, so skip it.

>  <Compound>
CC(C)c1ccc(-n2nnn(C(=O)N(C)C3CCOCC3)c2=O)cc1Cl

>  <IC20 (µM)>
26

$$$$

Next compound, please.
Reported IC20 of c1ccc(-c2cncc(N3CC4CC5CC3CN(C5)C4)c2)cc1 (stereo not drawn) : 27

----------
Each item that follows carries a reported CLint scaled at 0.5 µM.
# Test Description: in vitro
# Assay type: in vitro ADME
# Settings: mouse, microsomes, pH 7.4
# Experimental: Compounds (0.5 µM) were incubated with 0.25 mg/mL liver microsomal proteins at pH 7.4 at 37 °C. Reactions were initiated with […] and samples taken at 0, 5, 10, 15, 20 and 30 min. The reaction was stopped by addition of 95% ACN/5% MeOH containing an internal standard. Samples were combined in compound groups of six pre-sorted by mono molecular weight and analyzed by LC/MS/MS. […] The. half-life (T ½) and intrinsic clearance (mCLint) were calculated.

>  <Given Smiles>
O=C(NCCc1cc(Br)c(O)c(Br)c1)C1(c2ccc(F)cc2)CCC1

>  <Result>
31.6 L/h/kg

$$$$

Item: O=C(NCCc1cc(Br)c(O)c(Br)c1)C1(c2ccccc2)CCC1 | CLint scaled at 0.5 µM: 115 L/h/kg

----------
# Test Description: in vitro
# Format: cell-based
# Settings: human
Quick rule for you: IC20 at 72 h under 30 µM gets class 1, anything else gets class 0.

>  <Compound>
O=S(=O)(Nc1ccccc1-c1nn[nH]n1)c1ccc(OC(F)(F)F)cc1

>  <Discrete Label>
class 1

$$$$
>  <Compound>
Cc1cnc(-n2nnc3ccccc3c2=O)s1

>  <Discrete Label>
class 0

$$$$
>  <Compound>
CNc1cc(-c2ccccn2)nc(-c2ccccn2)n1

>  <Discrete Label>
class 1

$$$$
>  <Compound>
c1ccc(N2CCN(Cc3cnc4ccccc4n3)CC2)cc1

>  <Discrete Label>
class 1

$$$$
>  <Compound>
N#C/C(=C\NC1CCCCC1)c1nc2ccccc2[nH]1

>  <Discrete Label>
class 1

$$$$

Inquiry: Hello, I'm reviewing records and need to know if IC20 at 72 h of CNC(=O)N(O)C1c2cccc(F)c2Oc2ccsc21 (stereo not drawn) is below 30 µM. Could you check?
Reply text: class 0

Inquiry: # check: IC20 at 72 h < 30 µM for Nc1ccnc(Nc2ccccc2Nc2ccccc2)n1
Reply text: class 1

Inquiry: Is IC20 at 72 h of CN(Cc1cn2c3ccccc3n(C)c2n1)C12CC3CC(CC(C3)C1)C2 strictly below 30 µM?
Reply text: class 1

Inquiry: Does CC(=O)n1nccc1-c1sc(-c2cccs2)nc1C have IC20 at 72 h strictly under 30 µM?
Reply text: class 0

Inquiry: IC20 at 72 h strictly < 30 µM for this compound? Cc1nc2ccccn2c1-c1ccn(Cc2ccccc2)n1
Reply text: class 1

----------
# Test Description: in vitro
# Assay type: in vitro ADME, human
# Settings: human microsomes
Property: microsomal clearance / stability (in words)

>  <Given Smiles>
O=C(NCCc1cccc(Br)c1)C1(c2ccc(Cl)cc2)CCC1

>  <Result>
clearances increased

$$$$
>  <Given Smiles>
O=C(NCCc1cccc(Br)c1)C1(c2ccccc2Cl)CCC1

>  <Result>
clearances increased

$$$$

----------
# Test Description: in vitro
# Type: in vitro ADME, human
# Settings: human, microsomes, pH 7.4, human Clint
Quick rule: CLint scaled at 0.5 µM of at least 300 L/h/kg means Yes, below that means No.

>  <Compound>
Cc1ccccc1C1(C(=O)NCCc2cccc(Br)c2)CCC1

>  <Discrete Label>
Yes

$$$$
>  <Compound>
O=C(Nc1ncc2c(Br)cccc2n1)C1(c2ccccc2)CCC1

>  <Discrete Label>
No

$$$$
>  <Compound>
COc1cc(CCNC(=O)C2(c3ccccc3)CCC2)ccc1O

>  <Discrete Label>
No

$$$$

Inquiry: Dear colleague, could you confirm whether O=C(NCCc1cccc(Br)c1)C1(c2ccccc2)CC(F)(F)C1 has CLint scaled at 0.5 µM at or above 300 L/h/kg?
Reply text: No

Inquiry: Threshold query (CLint scaled at 0.5 µM >= 300 L/h/kg) on O=C(NCCc1cccc(Br)c1)C1(c2ccccc2)COC1
Reply text: No

Inquiry: # check: CLint scaled at 0.5 µM of O=C(NCCc1cccc(C(F)(F)F)c1)C1(c2ccccc2)CCC1 is greater than or equal to 300 L/h/kg
Reply text: No

Inquiry: Is it the case that O=C(NCC(O)c1ccc2c(c1)OCO2)C1(c2ccccc2)CCC1 (centres unmarked) has CLint scaled at 0.5 µM reaching or exceeding 300 L/h/kg?
Reply text: No

Inquiry: Dear colleague, could you confirm whether COc1ccc(CCNC(=O)C2(c3ccccc3)CCC2)cc1Br has CLint scaled at 0.5 µM at or above 300 L/h/kg?
Reply text: No

Inquiry: Entry O=C(NCCc1cccc(Br)c1)C1(c2ccc(Cl)cc2Cl)CCC1 : is its CLint scaled at 0.5 µM no less than 300 L/h/kg?
Reply text: Yes

Inquiry: Please indicate if the recorded CLint scaled at 0.5 µM for O=C(NCCc1cccc(Br)c1)C1(c2ccc(Cl)cc2)CCC1 meets or exceeds 300 L/h/kg.
Reply text: Yes

Inquiry: hey, is CLint scaled at 0.5 µM for this one >= 300 L/h/kg? O=C(NCCc1cccc(Br)c1)C1(c2ccccc2Cl)CCC1
Reply text: Yes

----------
# Test Description: in vitro
# Assay type: in vitro ADME, human
# Settings: human, microsomes, pH 7.4, human Clint
Property: CLint scaled at 0.5 µM (mL/min/kg)
The figure you give is taken to be in mL/min/kg; do not add the unit.

>  <Given Smiles>
O=C(NCCc1cccc(Br)c1)C1(c2ccccc2Br)CCC1

>  <Property>
CLint scaled at 0.5 µM

>  <Value Unit>
mL/min/kg

>  <Result Number>
13600

$$$$
>  <Given Smiles>
CN(CCc1cccc(Br)c1)C(=O)C1(c2ccccc2)CCC1

>  <Property>
CLint scaled at 0.5 µM

>  <Value Unit>
mL/min/kg

>  <Result Number>
7450

$$$$

O=C(NCCc1cccc(C(F)(F)F)c1)C1(c2ccccc2)COC1 has a reported CLint scaled at 0.5 µM of 232

Briefly, CLint scaled at 0.5 µM measured for Brc1cccc(-c2nc(C3(c4ccccc4)CCC3)no2)c1 : 4430

The compound listed as COc1ccc(CCNC(=O)C2(c3ccc(F)cc3)CCC2)cc1Br shows CLint scaled at 0.5 µM equal to 2480

Measured CLint scaled at 0.5 µM of O=C(NCCc1cc(Br)c(O)c(Br)c1)C1(c2ccccc2)CCC1 : 427

# compound O=C(NCCc1cccc(Br)c1)C1(c2ccccc2F)CCC1 ; its CLint scaled at 0.5 µM = 4380

The reported value for O=C(NCCc1ccc(Br)cc1)C1(c2ccccc2)CCC1 in terms of CLint scaled at 0.5 µM is 593

Input O=C(CNC(=O)C1(c2ccccc2)CCC1)c1cccc(Br)c1 . Output CLint scaled at 0.5 µM: 788

# CLint scaled at 0.5 µM (compound: O=C(NCCc1cc(Br)c(O)c(Br)c1)C1(c2ccc(F)cc2)CCC1 ) is 128

Source: paper PMC9435431
